# subject_of_test: COX-1 (Homo sapiens, UniProt P23219)
# Construct: human U-937 cells (which specifically express COX-1); endogenous in cells
# Sequence (P23219 24-599): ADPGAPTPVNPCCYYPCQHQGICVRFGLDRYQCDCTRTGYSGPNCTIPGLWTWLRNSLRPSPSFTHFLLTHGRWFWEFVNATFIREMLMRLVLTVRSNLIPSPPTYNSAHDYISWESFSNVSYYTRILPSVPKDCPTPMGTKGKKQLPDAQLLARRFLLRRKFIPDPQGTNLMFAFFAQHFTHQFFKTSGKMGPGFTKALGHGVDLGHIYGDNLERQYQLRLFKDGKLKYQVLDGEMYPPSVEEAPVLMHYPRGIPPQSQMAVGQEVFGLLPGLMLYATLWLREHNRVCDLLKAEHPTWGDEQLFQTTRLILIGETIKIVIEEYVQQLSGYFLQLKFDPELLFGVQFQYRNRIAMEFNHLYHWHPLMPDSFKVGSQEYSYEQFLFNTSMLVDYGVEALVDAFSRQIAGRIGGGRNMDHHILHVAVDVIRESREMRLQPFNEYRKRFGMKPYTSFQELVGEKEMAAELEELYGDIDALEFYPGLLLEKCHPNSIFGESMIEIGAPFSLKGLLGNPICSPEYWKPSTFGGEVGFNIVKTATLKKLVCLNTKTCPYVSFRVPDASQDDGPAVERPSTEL
# assay_explanation: Whole cell cyclooxygenase assay in U-937 cells (COX-1, inhibition of PGE2 production)
metric: IC50 (nM)

Example compounds with recorded IC50:
Bench note, COX-1 (Homo sapiens, UniProt P23219): entry C/C(CO)=C1\CC(c2ccc(S(C)(=O)=O)cc2)=C1c1ccccc1 , its IC50 = 1500

Simply: C=C1CC(c2ccc(S(C)(=O)=O)cc2)=C1c1ccccc1 , COX-1 (Homo sapiens, UniProt P23219), IC50 = 1000

I = CC1(C)C(=O)C(c2ccc(S(C)(=O)=O)cc2)=C1c1ccccc1
II = CC1(c2ccsc2)C(=O)C(c2ccccc2)=C1c1ccc(S(C)(=O)=O)cc1 (stereo not shown)
Of I and II , which one carries the higher reported IC50? To answer, give the label that identifies your chosen option.
II
(II: 2000 nM, I: 1100 nM)
